Below: a set of entries, each annotated with reported Kd.
- SYSTEM: T1, hu-M-IL1RAP construct, positions S21-T367 (extracellular domain of the membrane form of human IL1RAP) (human, UniProt Q9NPH3 21-367)
- T1 construct: Biotinylated when captured on the Biacore chip
- T1 sequence: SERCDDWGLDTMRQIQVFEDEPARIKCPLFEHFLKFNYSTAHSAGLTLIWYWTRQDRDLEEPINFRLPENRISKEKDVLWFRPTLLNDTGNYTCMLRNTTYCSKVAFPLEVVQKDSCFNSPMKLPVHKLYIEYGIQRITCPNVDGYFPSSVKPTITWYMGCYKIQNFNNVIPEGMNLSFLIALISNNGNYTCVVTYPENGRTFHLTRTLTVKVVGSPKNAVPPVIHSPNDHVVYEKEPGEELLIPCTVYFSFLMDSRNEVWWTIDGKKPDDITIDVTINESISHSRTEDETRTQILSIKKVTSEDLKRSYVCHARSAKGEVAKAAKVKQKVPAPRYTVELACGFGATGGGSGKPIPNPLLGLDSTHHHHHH
- EXPERIMENT_DESCRIPTION: BLI (OCTET), mAb captured, 25 C
Your answer is read as pM, so omit the unit and give the number.

BINDER: m11C5_C59V (antibody, mouse IgG2a, V domains shown, Murine IgG2a constant domains) VH: EVQLVESGGGLVKPGGSLKLSCAASGFTFSNYAMSWVRQTPEKRLEWVATVTEGGDYNYVLDDVKGRFTISRDNANDNLYLQMSHLKSEDSARYYCARDRWPYFFDYWGQGTTLTVSS VL: DIQMTQSPASLSVSVGETVTITCRASENIYSNLAWYQQKQGRSPQLLVYGAKNLADGVPSRFSGSGSGTQYSLNINSLQSEDFGTYYCQHFWTTPRTFGGGTKLEIK
MEASUREMENT_UNITS: pM
RECORDED_NUMBER: 604

BINDER: m11C5 (recombinant murine 11C5) (antibody, mouse IgG2a, V domains shown, Murine IgG2a constant domains) VH: EVQLVESGGGLVKPGGSLKLSCAASGFTFSNYAMSWVRQTPEKRLEWVATVTEGGDYNYCLDDVKGRFTISRDNANDNLYLQMSHLKSEDSARYYCARDRWPYFFDYWGQGTTLTVSS VL: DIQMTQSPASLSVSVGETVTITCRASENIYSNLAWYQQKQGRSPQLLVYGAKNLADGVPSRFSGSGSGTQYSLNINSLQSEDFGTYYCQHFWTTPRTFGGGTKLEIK
MEASUREMENT_UNITS: pM
RECORDED_NUMBER: 370

Reported Kd, binder h11C5_C59S (antibody, human IgG1, V domains shown, Human IgG1/kappa constant domains) VH: EVQLVESGGGLVQPGGSLRLSCAASGFTFSNYAMSWVRQAPGKGLEWVATVTEGGDYNYSLDDVKGRFTISRDNAKNSLYLQMNSLRAEDTAVYYCARDRWPYFFDYWGQGTLVTVSS VL: DIQMTQSPSSLSASVGDRVTITCRASENIYSNLAWYQQKPGKAPKLLVYGAKNLADGVPSRFSGSGSGTDYTLTISSLQPEDFATYYCQHFWTTPRTFGGGTKVEIK : ____
1080
